Data origin: patent US8586555B2

System: human peripheral blood mononuclear cells (hPBMC)
Experiment: human PBMC assay, Example 6
Format: cell-based
Details: donor 28075
OUTCOME_MEASURE: IFN-γ (pg/mL)
Numbers only, in pg/mL.

Guide cases for IFN-γ, answers given:
1) 5′-TCGTTT-3′ [Oligonucleotide 6-2]; 8
2) 5′-CCGTTT-3′ [Oligonucleotide 6-14]; 11
3) 5′-ACGTTT-3′ [Oligonucleotide 6-13]; 8
4) 5′-GCGTTT-3′ [Oligonucleotide 6-15]; 11
5) 5′-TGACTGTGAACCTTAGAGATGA-3′ (DNA, all phosphorothioate, methylation of C not given here) [ISS−, reference compound]; 15

Go through the list and state IFN-γ for each entry.
1. 5′-TGACTGTGAACGTTCGAGATGA-3′ [ISS+, reference compound]
2. 5′-TCGTCG-3′ [Oligonucleotide 6-12]

48
8

----------
Task for the reader: assign each of the following substances its reported IFN-α Mean.
Tested on: human peripheral blood mononuclear cells (hPBMC)
Assay: human PBMC assay, Example 5 (96 well plates, premixed)
Assay type: cell-based
Details: mean of donors 28051-28054
Numbers only, in pg/mL.

Guide cases for IFN-α Mean, answers given:
1. 5′-GTCGAC-3′ [Oligonucleotide 6-8]; 2
2. 5′-GTCGTT-3′ [Oligonucleotide 6-9]; 2
3. 5′-TCGAGA-3′ [Oligonucleotide 6-6]; 4
4. 5′-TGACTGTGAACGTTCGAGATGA-3′ [ISS+, reference compound]; 16
5. 5′-AACGTT-3′ [Oligonucleotide 6-16]; 2

Go through the list and state IFN-α Mean for each entry.
1. 5′-ATCGAT-3′ [Oligonucleotide 6-7]
2. 5′-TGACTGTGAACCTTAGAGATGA-3′ (DNA, all phosphorothioate, methylation of C not given here) [ISS−, reference compound]
3. 5′-TCGTTT-3′ [Oligonucleotide 6-2]

[2, 2, 3]

----------
System: human peripheral blood mononuclear cells (hPBMC)
Assay: human PBMC assay, Example 6
Type: cell-based
Details: donor 28077
Task for the reader: assign each of the following substances its reported IFN-α.
Answers are plain numbers, in pg/mL.

Go through the list and state IFN-α for each entry.
1. 5′-ACGTTT-3′ [Oligonucleotide 6-13]
2. 5′-CCGTTT-3′ [Oligonucleotide 6-14]
3. 5′-TCGTTT-3′ [Oligonucleotide 6-2]
4. 5′-TCGTCG-3′ [Oligonucleotide 6-12]
5. 5′-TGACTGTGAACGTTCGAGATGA-3′ [ISS+, reference compound]
6. 5′-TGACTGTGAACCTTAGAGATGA-3′ (DNA, all phosphorothioate, methylation of C not given here) [ISS−, reference compound]
7. 5′-GCGTTT-3′ [Oligonucleotide 6-15]

1: 28; 2: 9; 3: 66; 4: 187; 5: 54; 6: 54; 7: 35

----------
Test system: human peripheral blood mononuclear cells (hPBMC)
Experiment: human PBMC assay, Example 6
Assay type: cell-based
Settings: volunteer 155
OUTCOME_MEASURE: IFN-γ
Respond with the figure and its unit, in that order.

Guide cases for IFN-γ, answers given:
1. 5′-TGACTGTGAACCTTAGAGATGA-3′ (DNA, all phosphorothioate, methylation of C not given here) [ISS−, reference compound]; 17 pg/mL
2. 5′-TCCTTT-3′ [Oligonucleotide 6-20, reference compound]; 0 pg/mL
3. 5′-TCCGGA-3′ [Oligonucleotide 6-18, reference compound]; 0 pg/mL

--- query ---
Requested read-out: IFN-γ. Entry: 5′-CGATCG-3′ [Oligonucleotide 6-11]
0 pg/mL
